# Test system: 5-lipoxygenase
# experiment.notes: Inhibition of the synthesis of LTB4 by the peritoneal PMN of rats in vitro (5-lipoxygenase-inhibiting activity)
# Type: cell-based, rat
# setup.conditions: 10^-8 M; rat peritoneal PMN, A23187 10^-6 M
# Description: 1.1 Determination of 5-1ipoxygenase-inhibiting activity in vitro (see Goldyne M. E., Burrish G. F., Poubelle P. and Borgeat P., Arachidonic Acid Metabolism among human mononuclear leukocytes. The Journal of Biological Chemistry. Vol. 259, N° 4, p. 8815-8819, 1984, and New Chang C. and Gin Wensu. Stimulation of 5-Lipoxygenase Activity in Polymorphonuclear Leukocytes of Rats by Caseinate Treatment. Biochemical Pharmacology. Vol. 36, N° 8, p. 3033-3036, 1987). […]
Counter-ions that a name gives are not always drawn.
measured.quantity: LTB4 % Inhibition (%)
Please state the figure in %; there is no need to write the unit.

# example entries with known answers
O=C1NCC2(CCN(CC(c3ccc(Cl)cc3)c3ccc(OCc4ccc5ccccc5n4)cc3)CC2)O1 (racemic) [Example 8, dihydrochloride] :: 22
O=C1NCC2(CCN(CC(Cc3ccc(Cl)cc3)c3ccc(OCc4ccc5ccccc5n4)cc3)CC2)O1 (racemic) [Example 34, hydrochloride] :: 12
O=C1NCC2(CCN(CC(c3ccccc3)c3ccc(OCc4ccc5ccccc5n4)cc3)CC2)O1 (racemic) [Example 6] :: 21
O=C1NCC2(CCN(CC(CCc3ccccc3)c3ccc(OCc4ccc5ccccc5n4)cc3)CC2)O1 (racemic) [Example 33] :: 6

Proceeding to the next compound to report its LTB4 % Inhibition.
IN: Returns the measured LTB4 % Inhibition for the input compound. Input: O=C1NCC2(CCN(C(c3ccc(Cl)cc3)c3ccc(OCc4ccc5ccccc5n4)cc3)CC2)O1 (racemic) [Example 22, dihydrochloride]
OUT: 18
